Tested on: Streptococcus pneumoniae
Test: Antibacterial activity against Streptococcus pneumoniae ATCC 49619 after 20 hrs by CLSI based-broth microdilution method
Type: functional
Details: ATCC 49619, 20 h
outcome-measure: MIC (µg/mL)

Below are worked cases with known answers.
compound_smiles=Nc1ccccc1Sc1ccc(CNc2cccc(C(=O)O)c2)cc1[N+](=O)[O-] numeric_result=64
compound_smiles=Cc1occc1Sc1ccc(C(=O)c2ccccc2C(=O)O)cc1[N+](=O)[O-] numeric_result=256
compound_smiles=CO[C@H]1/C=C/O[C@@]2(C)Oc3c(C)c(O)c4c(O)c(c(/C=N/N5CCN(C)CC5)c(O)c4c3C2=O)NC(=O)/C(C)=C\C=C\[C@H](C)[C@H](O)[C@@H](C)[C@@H](O)[C@@H](C)[C@H](OC(C)=O)[C@@H]1C numeric_result=0.0625

[1] Nc1cc(C(=O)c2ccccc2C(=O)O)ccc1Sc1ccc(Cl)c(Cl)c1
[2] O=C(O)c1ccccc1C(=O)c1ccc(NCc2ccccc2)c([N+](=O)[O-])c1
[3] Cc1cccc([N+](=O)[O-])c1Sc1ccc(C(=O)c2ccccc2C(=O)O)cc1[N+](=O)[O-]
query: Put the items in sequence by MIC, from largest down. Answer by listing the labels in the requested order.
result: 2, 3, 1
(2: 256 µg/mL, 3: 128 µg/mL, 1: 32 µg/mL)

Every entry's value here was drawn from ChEMBL document CHEMBL4616723.
